The measurements presented in this section are drawn from patent US12577206B2.

# measurement-target: human FPR1 (Homo sapiens, UniProt P21462)
# Sequence (P21462 whole entry): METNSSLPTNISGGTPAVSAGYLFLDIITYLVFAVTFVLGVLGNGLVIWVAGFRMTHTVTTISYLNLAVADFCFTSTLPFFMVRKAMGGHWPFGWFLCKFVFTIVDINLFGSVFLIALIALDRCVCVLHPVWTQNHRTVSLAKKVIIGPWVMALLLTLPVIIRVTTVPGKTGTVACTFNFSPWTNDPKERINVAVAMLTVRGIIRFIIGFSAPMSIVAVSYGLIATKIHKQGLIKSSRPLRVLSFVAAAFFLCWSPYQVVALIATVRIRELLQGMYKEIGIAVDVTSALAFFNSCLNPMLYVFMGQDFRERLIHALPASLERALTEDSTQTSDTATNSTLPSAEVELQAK
# test-name: FPR1 cyclic adenosine monophosphate (cAMP) assay
# experimental-conditions: CHO cells overexpressing human FPR1; forskolin 10 μM; inhibition of cAMP production; HTRF; read-out: hFPR1 cAMP2 EC50
result-type: EC50

{"compound": "COc1cc(F)c(-c2c(NC(=O)c3ccc(OC(F)F)cc3)c(=O)n(-c3cccc(C(C)O)n3)n2C)c(F)c1 (centres unmarked) [Example 86]", "measurement-target": "human FPR1 (Homo sapiens, UniProt P21462)", "EC50": "1.4 µM"}

**Query** Identify the measured EC50 of COc1cc(F)c(-c2c(NC(=O)c3ccc(OC(F)F)cc3)c(=O)n(-c3cc(C)cc(OCCO)n3)n2C)c(F)c1 [Example 331] for human FPR1 (Homo sapiens, UniProt P21462).
**Result** > 10 µM

**Query** Reported EC50 for human FPR1 (Homo sapiens, UniProt P21462), given Cn1ncc2cc(-c3c(NC(=O)c4ccc(OC(F)F)cc4)c(=O)n(-c4ncccc4C(F)(F)F)n3C)ccc21 [Example 223] ?
**Result** > 5 µM

**Query** Value wanted: EC50 (human FPR1 (Homo sapiens, UniProt P21462)) of entry COc1cc(F)c(-c2c(NC(=O)c3ccc(OC(F)F)cc3)c(=O)n(-c3nc(N4CC(C)(O)C4)ccc3C#N)n2C)c(F)c1 [Example 311]
**Result** > 10 µM

**Query** Notebook: pull reported EC50 for human FPR1 (Homo sapiens, UniProt P21462), entry COc1cc(F)c(-c2c(NC(=O)c3ccc(OC(F)F)cc3)c(=O)n(-c3cccc(N4CCN(C)CC4)n3)n2C)c(F)c1 [Example 83]
**Result** > 10 µM

**Query** // lookup EC50 | system=human FPR1 (Homo sapiens, UniProt P21462) | key= COc1cc(F)c(-c2c(NC(=O)c3ccc(OC(F)F)cc3)c(=O)n(-c3nc(OCC4CC4)ccc3C(F)(F)F)n2C)c(F)c1 [Example 287]
**Result** > 5 µM

**Query** Please state recorded EC50 (tested on human FPR1 (Homo sapiens, UniProt P21462)) of COCCOc1ccc(C(F)(F)F)c(-n2c(=O)c(NC(=O)c3ccc(OC(F)F)cc3)c(-c3c(F)cc(OC)cc3F)n2C)n1 [Example 278]
**Result** > 10 µM

**Query** I'm curious: which EC50 was measured for COc1cc(C)nc(-n2c(=O)c(NC(=O)c3ccc(OC(F)F)cc3)c(-c3c(F)cc(OC)cc3F)n2C)c1 [Example 376] tested on human FPR1 (Homo sapiens, UniProt P21462)?
**Result** > 10 µM

**Query** Identify the measured EC50 of COc1cc(F)c(-c2c(NC(=O)c3ccc(OC(F)F)cc3)c(=O)n(-c3nc(OCCO)ccc3C(F)(F)F)n2C)c(F)c1 [Example 285] for human FPR1 (Homo sapiens, UniProt P21462).
**Result** > 10 µM

**Query** Identify the measured EC50 of COc1cc(F)c(-c2c(NC(=O)c3ccc(OC(F)(F)F)cc3)c(=O)n(-c3ccccc3)n2C)c(F)c1 [Example 4] for human FPR1 (Homo sapiens, UniProt P21462).
**Result** 1.3 µM

**Query** # returns recorded EC50 (system: human FPR1 (Homo sapiens, UniProt P21462)) for COc1cc(F)c(-c2c(NC(=O)c3ccc(OC(F)F)cc3)c(=O)n(-c3cccc(N4CCN(CCS(C)(=O)=O)CC4)n3)n2C)c(F)c1 [Example 206]
**Result** > 5 µM

====

# measurement-target: human FPR2 (Homo sapiens)
# Sequence (P25090 whole entry): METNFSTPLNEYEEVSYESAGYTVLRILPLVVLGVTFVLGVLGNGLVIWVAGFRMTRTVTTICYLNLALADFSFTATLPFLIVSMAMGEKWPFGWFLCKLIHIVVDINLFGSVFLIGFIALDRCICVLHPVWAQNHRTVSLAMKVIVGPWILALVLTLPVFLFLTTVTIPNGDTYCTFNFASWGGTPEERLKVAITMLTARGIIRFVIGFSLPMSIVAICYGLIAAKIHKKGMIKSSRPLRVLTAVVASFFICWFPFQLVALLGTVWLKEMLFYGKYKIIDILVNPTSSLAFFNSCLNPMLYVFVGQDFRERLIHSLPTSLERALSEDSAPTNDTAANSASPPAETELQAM
# test-name: FPR2 cyclic adenosine monophosphate (cAMP) assay
# experimental-conditions: CHO cells overexpressing human FPR2; forskolin 5 μM; inhibition of cAMP production; HTRF; read-out: hFPR2 cAMP2 EC50
pEC50: −log10 of the molar value.
result-type: pEC50

Solved entries:
{"compound": "COc1cc(C)cc(-n2c(=O)c(NC(=O)c3ccc(OC(F)F)cc3)c(-c3c(F)cc(OC)cc3F)n2C)c1 [Example 121]", "measurement-target": "human FPR2 (Homo sapiens)", "recorded-result": 8.22}
{"compound": "COc1cc(N2C[C@H]3C[C@@H]2CN3C)nc(-n2c(=O)c(NC(=O)c3ccc(OC(F)F)cc3)c(-c3c(F)cc(OC)cc3F)n2C)c1 [Example 354]", "measurement-target": "human FPR2 (Homo sapiens)", "recorded-result": 8.70}

A = COc1cc(F)c(-c2c(NC(=O)c3ccc(OC(F)F)cc3)c(=O)n(-c3nc(C(F)(F)F)ccc3N(C)CCO)n2C)c(F)c1 [Example 375]
B = COc1cc(OC2CCOC2)nc(-n2c(=O)c(NC(=O)c3ccc(OC(F)F)cc3)c(-c3c(F)cc(OC)cc3F)n2C)c1 (centres unmarked) [Example 356]
C = COc1cc(F)c(-c2c(NC(=O)c3ccc(OC(F)F)cc3)c(=O)n(-c3nc(N4CCN(C)CC4)ccc3Cl)n2C)c(F)c1 [Example 143]
**Query** Sort the 3 compounds by pEC50; largest first, smallest last. Sort the labels as requested; that list is your answer.
**Result** A, B, C
